target: p110α (Homo sapiens); experiment: PI3K isoform inhibition, Ki and IC50
Sequence (P42336 whole entry, species assumed, canonical isoform): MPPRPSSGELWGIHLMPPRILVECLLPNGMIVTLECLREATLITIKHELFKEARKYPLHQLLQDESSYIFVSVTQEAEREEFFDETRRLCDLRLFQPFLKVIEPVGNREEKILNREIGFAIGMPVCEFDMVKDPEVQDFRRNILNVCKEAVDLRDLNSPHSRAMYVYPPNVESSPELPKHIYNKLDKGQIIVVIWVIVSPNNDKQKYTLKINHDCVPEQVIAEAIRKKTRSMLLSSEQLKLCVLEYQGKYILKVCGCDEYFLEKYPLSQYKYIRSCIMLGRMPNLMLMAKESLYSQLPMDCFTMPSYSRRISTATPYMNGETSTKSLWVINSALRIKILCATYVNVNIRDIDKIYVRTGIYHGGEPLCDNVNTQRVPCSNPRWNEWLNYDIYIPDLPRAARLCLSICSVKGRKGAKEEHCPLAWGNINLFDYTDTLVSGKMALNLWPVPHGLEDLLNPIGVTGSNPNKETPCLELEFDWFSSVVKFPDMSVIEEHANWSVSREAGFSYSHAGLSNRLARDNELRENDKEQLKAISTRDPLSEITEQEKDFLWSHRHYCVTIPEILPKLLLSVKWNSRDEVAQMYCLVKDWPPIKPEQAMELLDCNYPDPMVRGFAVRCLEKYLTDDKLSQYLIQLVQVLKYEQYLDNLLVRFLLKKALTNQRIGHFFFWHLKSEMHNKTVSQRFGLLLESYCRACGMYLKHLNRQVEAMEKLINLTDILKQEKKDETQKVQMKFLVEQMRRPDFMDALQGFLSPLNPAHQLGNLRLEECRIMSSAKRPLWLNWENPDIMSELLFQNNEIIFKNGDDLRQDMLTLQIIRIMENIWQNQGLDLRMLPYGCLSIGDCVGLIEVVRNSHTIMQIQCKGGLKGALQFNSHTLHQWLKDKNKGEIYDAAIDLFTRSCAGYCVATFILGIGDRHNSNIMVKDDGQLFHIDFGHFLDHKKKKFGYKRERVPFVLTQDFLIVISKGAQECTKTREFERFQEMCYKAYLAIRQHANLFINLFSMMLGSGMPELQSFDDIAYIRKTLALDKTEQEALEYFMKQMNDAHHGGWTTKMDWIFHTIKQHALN
Sequence (P27986 whole entry partner, species assumed, canonical isoform): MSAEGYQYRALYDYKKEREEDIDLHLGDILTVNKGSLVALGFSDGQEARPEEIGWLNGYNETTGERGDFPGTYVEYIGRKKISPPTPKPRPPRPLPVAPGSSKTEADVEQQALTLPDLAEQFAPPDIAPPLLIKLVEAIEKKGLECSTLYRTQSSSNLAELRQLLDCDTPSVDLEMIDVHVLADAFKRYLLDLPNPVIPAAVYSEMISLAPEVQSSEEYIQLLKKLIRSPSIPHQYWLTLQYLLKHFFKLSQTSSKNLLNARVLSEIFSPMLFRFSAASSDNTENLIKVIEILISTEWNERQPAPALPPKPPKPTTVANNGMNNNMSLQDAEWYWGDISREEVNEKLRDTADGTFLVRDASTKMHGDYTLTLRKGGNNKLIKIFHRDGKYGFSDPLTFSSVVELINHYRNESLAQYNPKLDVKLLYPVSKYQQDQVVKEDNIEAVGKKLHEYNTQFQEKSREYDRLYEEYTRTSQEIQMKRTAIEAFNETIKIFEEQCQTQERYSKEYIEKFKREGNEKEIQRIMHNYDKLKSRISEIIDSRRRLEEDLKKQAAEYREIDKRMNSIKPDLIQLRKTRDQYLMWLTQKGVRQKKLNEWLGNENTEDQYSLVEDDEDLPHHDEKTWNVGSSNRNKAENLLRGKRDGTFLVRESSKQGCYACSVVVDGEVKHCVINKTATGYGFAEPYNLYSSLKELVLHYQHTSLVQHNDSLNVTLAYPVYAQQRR
endpoint: Ki
Just the number plus its unit, please.

Ask | Given Fc1ccc2[nH]ccc2c1-c1nc(N2CCOCC2)c2sc(CN3CCN(CC4CC4)CC3)cc2n1 [PI-3065] , state its recorded Ki.
Reply | 110 nM

###

biological target: p110δ (Homo sapiens, UniProt O00329); test: PI3K isoform inhibition, Ki and IC50
Sequence (O00329 whole entry, species assumed, canonical isoform): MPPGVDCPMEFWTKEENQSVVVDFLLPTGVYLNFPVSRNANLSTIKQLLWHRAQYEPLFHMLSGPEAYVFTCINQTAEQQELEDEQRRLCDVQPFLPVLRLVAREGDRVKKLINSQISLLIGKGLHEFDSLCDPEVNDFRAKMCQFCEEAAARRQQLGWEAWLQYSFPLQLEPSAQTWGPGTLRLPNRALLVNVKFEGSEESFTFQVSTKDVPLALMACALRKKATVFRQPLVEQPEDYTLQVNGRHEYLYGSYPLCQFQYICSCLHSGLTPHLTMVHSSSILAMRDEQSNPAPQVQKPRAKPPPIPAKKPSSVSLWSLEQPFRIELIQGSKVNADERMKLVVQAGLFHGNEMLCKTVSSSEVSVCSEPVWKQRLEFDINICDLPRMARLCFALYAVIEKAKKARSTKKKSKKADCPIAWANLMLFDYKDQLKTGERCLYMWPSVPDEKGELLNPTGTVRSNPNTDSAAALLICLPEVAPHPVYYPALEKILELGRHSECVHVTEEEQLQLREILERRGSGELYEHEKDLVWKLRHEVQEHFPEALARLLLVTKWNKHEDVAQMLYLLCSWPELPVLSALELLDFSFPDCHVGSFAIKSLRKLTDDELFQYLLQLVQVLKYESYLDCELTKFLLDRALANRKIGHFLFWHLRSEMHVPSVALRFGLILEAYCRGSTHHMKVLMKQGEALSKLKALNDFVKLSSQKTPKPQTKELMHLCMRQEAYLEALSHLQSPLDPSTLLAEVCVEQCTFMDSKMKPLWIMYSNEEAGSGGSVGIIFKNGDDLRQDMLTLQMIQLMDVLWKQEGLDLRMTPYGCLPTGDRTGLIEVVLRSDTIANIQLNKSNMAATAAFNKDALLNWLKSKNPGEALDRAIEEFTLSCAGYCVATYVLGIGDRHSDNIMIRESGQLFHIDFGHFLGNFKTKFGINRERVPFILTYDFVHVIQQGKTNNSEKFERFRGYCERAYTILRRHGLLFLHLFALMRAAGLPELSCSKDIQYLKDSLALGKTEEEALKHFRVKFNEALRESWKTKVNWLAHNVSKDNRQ
Sequence (P27986 whole entry partner, species assumed, canonical isoform): as the sequence (P27986 whole entry partner, species assumed, canonical isoform) above
endpoint: pKi
Here pKi is given on a logarithmic scale as minus log10 of the concentration in mol/L.

Ask | Given the entry Fc1ccc2[nH]ccc2c1-c1nc(N2CCOCC2)c2sc(CN3CCN(CC4CC4)CC3)cc2n1 [PI-3065] , report its measured pKi.
Reply | 8.82
